Tested on: U251 CNS
assay-remarks: NCI tumour cell line growth inhibition, 48 h
Overview of recorded TGI for various molecules

Worked examples, 5 molecules total:
> print(dat)
                                   molecule  measurement
1  COc1cc([C@@H]2c3cc4c(cc3[C@@H](c3c(O)cc(O)c5c3O[C@H](c3ccc(O)c(O)c3)[C@@H](O)C5)[C@H]3COC(=O)[C@H]23)OCO4)cc(OC)c1OC      3.64 µM
2  C[N+](C)(C)c1ccc(C(N)C(=O)O)cc1 (centres undefined)     > 100 µM
3     COc1ccc(CCN2CC=Cn3c2nc2ccccc2c3=O)cc1     > 100 µM
4                      CN(C)c1nc(N)nc(CS)n1     > 100 µM
5  Cc1cc(-c2nc3cc(F)ccc3s2)ccc1NC(=O)[C@@H](N)CCCCN      3.89 µM

What does the data say about its TGI? Entry: O=S(=O)(/C=C/c1ccc(F)cc1)Cc1ccc(CS(=O)(=O)/C=C/c2ccc(F)cc2)cc1 > 100 µM

What does the data say about its TGI? Entry: COc1cc2nc(N3CCCC3)nc(NCc3ccccc3)c2cc1OC 3.92 µM

What does the data say about its TGI? Entry: CCCCOC(=O)N1CCN(/[N+]([O-])=N/Oc2ccc([N+](=O)[O-])cc2[N+](=O)[O-])CC1 21.8 µM

What does the data say about its TGI? Entry: Cc1cc([N+](=O)[O-])c(NS(=O)(=O)c2cccc(C(=O)O)c2)cc1-c1cccnc1 > 100 µM

---

Tested on: HL-60(TB) leukemia
assay-remarks: NCI tumour cell line growth inhibition, 48 h
measure-name: TGI

Worked examples, 4 compounds total:
> print(dat)
                                   compound  measurement
1  C[C@H](OCc1ccccc1)C(=O)N1CCS(=O)(=O)N2CCC[C@@H]2C1=O     > 100 µM
2           O=C(Nc1ccc(Br)cc1F)c1cc(I)ccc1O      4.79 µM
3  C[C@@H]1[C@H](C)N1CC(O)Cn1ccnc1[N+](=O)[O-] (stereo partly specified)     > 100 µM
4     CC(=O)N1CC(C)(C)c2c(C)c(O)c(C)c(C)c21     > 100 µM

What does the data say about its TGI? Entry: O=c1[nH]nc(-c2ccccc2)n1/N=C\c1ccccc1 > 100 µM

What does the data say about its TGI? Entry: Cc1cc(F)ccc1S(=O)(=O)Nc1cc(-c2c(O)ccc3ccccc23)c(O)c2ccccc12 6.19 µM

---

Overview of recorded TGI for various molecules
Test system: UO-31 renal
assay-remarks: NCI tumour cell line growth inhibition, 48 h

Worked examples, 5 molecules total:
molecule	tested-system	TGI
Cc1cc(NCCCN(C)C)c2ccc3c(ccc4c(NCCCN(C)C)cc(C)nc43)c2n1	UO-31 renal	0.557 µM
CN(C)CCN1C(=O)c2c(c3c4ccccc4n4c3c3c2c2ccccc2n3C2CC(O)C(O)C4(C)O2)C1=O (stereo not drawn)	UO-31 renal	13.9 µM
CSc1nnc(CCC(=O)Nc2c(C)cccc2C)o1	UO-31 renal	> 100 µM
O=C(Nc1cccc(-n2cc(-c3ccncc3)c(-c3ccc(Cl)c(O)c3)n2)c1)Nc1cc(C(F)(F)F)cc(C(F)(F)F)c1	UO-31 renal	1.77 µM
COc1cc(OC)c(C/C=C/c2ccccc2)cc1O	UO-31 renal	29.6 µM

What does the data say about its TGI? Entry: COP(=O)(OC)C(Cc1cn(C(C)=O)c2ccccc12)C(=O)O (stereo not drawn) > 100 µM

What does the data say about its TGI? Entry: CCNC(=S)N=Nc1c(O)[nH]c2ccc([N+](=O)[O-])cc12 > 100 µM

What does the data say about its TGI? Entry: CC1=C(c2cccc(O)c2)[C@H](c2ccc(OCCN3CC(CF)C3)cc2)Oc2ccc(O)cc21 16 µM

What does the data say about its TGI? Entry: C[C@H](NC(=O)C(Cc1ccccc1)(Cc1ccc(O)cn1)NC(=O)c1ccccc1)c1ccccc1 (stereo partly drawn) 29.1 µM

What does the data say about its TGI? Entry: Cc1cc([N+](=O)[O-])c(NS(=O)(=O)c2cccc(C(=O)O)c2)cc1-c1cccnc1 > 100 µM

What does the data say about its TGI? Entry: c1cncc(C2N3CCCCC3[C@@H]3c4[nH]c5ccccc5c4CCN23)c1 (stereo partly drawn) > 100 µM

What does the data say about its TGI? Entry: O=C1NC(=O)C(C(CC(=O)c2ccc([N+](=O)[O-])cc2)c2ccccc2)C(=O)N1 (stereo not drawn) > 100 µM

---

Overview of recorded TGI for various compounds
Tested on: MDA-N
assay-remarks: NCI tumour cell line growth inhibition, 48 h

Worked examples, 4 compounds total:
> print(dat)
                                   compound  measurement
1  COC(=O)C1CCC(=S)N1C(=O)c1ccccc1 (configuration not stated)     > 100 µM
2  COc1ccc(CC(N)c2ccc(OC)cc2)cc1 (configuration not stated)     > 100 µM
3  CC(C)(C)C(=O)OCC1C(=O)OCC1C(=O)N1Cc2cc3ccccc3nc2C1 (configuration not stated)      14.1 µM
4             Cc1ccc([S@](=O)c2occc2C=O)cc1      15.1 µM

What does the data say about its TGI? Entry: CCOC(=O)c1nc2ccc(C(F)(F)F)cc2nc1Oc1cc(OC)c(OC)c(OC)c1 > 100 µM

What does the data say about its TGI? Entry: CCCCOC(=O)C(NC(C(=O)OCCCC)c1cc(C(C)(C)C)c(O)c(C(C)(C)C)c1)c1cc(C(C)(C)C)c(O)c(C(C)(C)C)c1 (configuration not stated) > 100 µM

What does the data say about its TGI? Entry: CC(C)=NN/C(=N\S(=O)(=O)c1ccc(Oc2cccc(Cl)c2C#N)cc1)Nc1ccc(Cl)cc1 > 100 µM

What does the data say about its TGI? Entry: O=C1Nc2ccc(Br)cc2C1=Nc1cccnc1 34.7 µM

What does the data say about its TGI? Entry: Cc1ccc(OCC2OC(n3cnc4c(Cl)nc(N)nc43)CC2Oc2ccc(C)cc2)cc1 (configuration not stated) > 100 µM

What does the data say about its TGI? Entry: Cc1cccc(Nc2nn3c(=O)c4c5c(sc4nc3s2)CCCC5)c1 > 100 µM

What does the data say about its TGI? Entry: Cc1cccc(/C=N/NC(=S)N2CCCC2)n1 > 26.1 µM

What does the data say about its TGI? Entry: CCCCC(=O)c1c(O)nc2sccn2c1=O > 10 µM

What does the data say about its TGI? Entry: O=C1CCCCCCCCCCC1CN1CCCC1 (configuration not stated) > 100 µM

What does the data say about its TGI? Entry: O=C1NC(Nc2ccccc2)=NC(C(F)(F)F)(C(F)(F)F)N1 > 100 µM

What does the data say about its TGI? Entry: CCC1(c2ccccc2)Sc2ccccc2-n2cccc2C1=O (configuration not stated) > 10 µM

What does the data say about its TGI? Entry: OC1(c2ccccc2)CCN(Cc2c[nH]c3ccccc23)CC1 > 100 µM

What does the data say about its TGI? Entry: Cc1csc(NC23CC4CC(CC(C4)C2)C3)[n+]1C(P(=O)([O-])O)P(=O)(O)O (configuration not stated) > 100 µM

What does the data say about its TGI? Entry: O=c1[nH]nc(-c2ccccc2)n1/N=C\c1ccccc1 > 100 µM

---

Overview of recorded GI50 for various compounds
System: TK-10 renal
assay-remarks: NCI tumour cell line growth inhibition, 48 h

compound	measure-name	measurement
Cc1cc(NCCCN(C)C)c2ccc3c(ccc4c(NCCCN(C)C)cc(C)nc43)c2n1	GI50	0.24 µM

What does the data say about its GI50? Entry: Cc1cc([N+](=O)[O-])c(NS(=O)(=O)c2cccc(C(=O)O)c2)cc1-c1cccnc1 > 100 µM

What does the data say about its GI50? Entry: C[C@H]1CC[C@@]2(NC1)O[C@H]1C[C@H]3[C@@H]4CC[C@H]5C[C@@H](O)CC[C@]5(C)[C@H]4CC[C@]3(C)[C@H]1[C@@H]2C 11.1 µM

---

System: OVCAR-4 ovarian
assay-remarks: NCI tumour cell line growth inhibition, 48 h
measure-name: TGI

Worked examples, 5 molecules total:
molecule	measurement
O=C1c2cc3c(cc2[C@@H]2[C@H]1c1ccc([N+](=O)[O-])cc1C(=O)N2CCCBr)OCO3	7 µM
Cc1cc(NC(=O)NC(=O)c2ccccc2NC(=O)C(C)N)ccc1Oc1ncc(Br)cn1 (configuration not stated)	36.7 µM
COc1cc([C@@H]2c3cc4c(cc3[C@@H](c3c(O)cc(O)c5c3O[C@H](c3ccc(O)c(O)c3)[C@@H](O)C5)[C@H]3COC(=O)[C@H]23)OCO4)cc(OC)c1OC	3.35 µM
CC(C)(C)C(=O)OCC1C(=O)OCC1C(=O)N1Cc2cc3ccccc3nc2C1 (configuration not stated)	7.67 µM
CN(C)C(=O)OC1C(=O)N(C)c2ccc(Cl)cc2C2(c3ccccc3)N1C2(Cl)Cl (configuration not stated)	> 100 µM

What does the data say about its TGI? Entry: CN(C(=O)C12C3C4C1C1C2C3C41C(N)=O)C(C)(C)C (configuration not stated) > 100 µM

What does the data say about its TGI? Entry: COc1ccc(CC(N)c2ccc(OC)cc2)cc1 (configuration not stated) > 100 µM

What does the data say about its TGI? Entry: CSC1=C(N)C(=O)c2[nH]cc(CO)c2C1=N 0.249 µM

What does the data say about its TGI? Entry: COc1cccc(-c2c[nH]c3c(N/N=C/c4ccncc4)ncnc23)c1 11.1 µM

What does the data say about its TGI? Entry: O=[N+]([O-])c1ccc(-n2nnc(C3=NCCN3)c2-c2ccccc2)cc1 > 100 µM

What does the data say about its TGI? Entry: COC1CC(O[C@H]2CC[C@@]3(C)[C@H](CC[C@@H]4[C@@H]3CC[C@]3(C)[C@@H](C5=CC(=O)OC5)[C@@H](OC(C)=O)C[C@]43O)C2)OC(C)C1O (some centres not stated) < 0.01 µM

What does the data say about its TGI? Entry: OCC(O)C(O)C(O)C(O)c1nc2ccc(Cl)cc2[nH]1 (configuration not stated) > 100 µM

What does the data say about its TGI? Entry: O=C1NNC2(C(=O)N1)c1ccccc1-c1ccccc12 > 10 µM

The measurements presented in this section are drawn from PubChem BioAssay (NCI).
